# Tested target: T1, human CD39 on the cell membrane (CHO-K1-human CD39 stable cell line); SK-MEL-28 melanoma cells; human CD4+ T … (human, UniProt P49961 1-510)
# T1 sequence: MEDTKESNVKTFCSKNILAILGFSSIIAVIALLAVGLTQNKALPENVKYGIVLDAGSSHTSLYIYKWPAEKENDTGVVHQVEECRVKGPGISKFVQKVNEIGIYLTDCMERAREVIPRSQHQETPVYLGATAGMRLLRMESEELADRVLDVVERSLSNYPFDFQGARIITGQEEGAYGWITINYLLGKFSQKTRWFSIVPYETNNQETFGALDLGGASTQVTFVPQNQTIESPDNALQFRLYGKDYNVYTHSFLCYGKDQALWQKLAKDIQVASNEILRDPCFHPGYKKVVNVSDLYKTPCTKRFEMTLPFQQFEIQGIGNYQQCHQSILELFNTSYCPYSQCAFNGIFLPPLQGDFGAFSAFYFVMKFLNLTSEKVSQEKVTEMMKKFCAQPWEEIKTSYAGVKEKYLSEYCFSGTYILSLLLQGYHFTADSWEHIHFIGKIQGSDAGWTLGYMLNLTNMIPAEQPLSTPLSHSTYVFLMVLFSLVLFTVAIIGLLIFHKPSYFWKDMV
# Procedure summary: cell-based or functional assay
Measurement label: IC50 (read off the curve), cell-surface hCD39 ATPase activity

1) HuEM0004-38-23 (antibody, human IgG1, kappa, L234A L235A, V domains shown, humanized mAb638 with G55A) VH: EVQLVQSGAEVKKPGASVKVSCKASGYTFTSFWMHWVRQAPGQGLEWIGNINPRNAATKYNEKFRSRVTLTADKSISTAYMELSRLRSDDTAVYYCAREDYDEIYYAMDSWGQGTTVTVSS VL: ENVLTQSPATLSLSPGERATLSCSASSSVIYMYWFQQKPGQSPRVLIYDTSNLASGVPARFSGSGSGTDYTLTISSLEPEDFAVYYCQQWSTYPLTFGQGTKLEIKR    ~0.2 nM
2) mAb638 (antibody, V domains shown, mouse anti-human CD39 hybridoma mAb, IgG1, κ) VH: QVQLQQPGTELVKPGASVKLSCKASGYTFTSFWMHWVKQRPGQGLEWIGNINPRNGATKYNEKFRSKVTLTADKTSSTAYMHLSSLTSEDSAVYYCAREDYDEIYYAMDSWGQGTSVTVSS VL: QNVLTQSPAIMSASPGEKVTMTCSASSSVIYMYWFQQKPGSSPRVLIYDTSNLASGVPARFSGSGSGTSYSLTISRMEAEDAATYYCQQWSTYPLTFGAGTKLELK    ~0.4 nM
3) HuEM0004-38-22 (antibody, human IgG1, kappa, L234A L235A, V domains shown, humanized mAb638 with G55A) VH: EVQLVQSGAEVKKPGASVKVSCKASGYTFTSFWMHWVRQAPGQGLEWMGNINPRNAATKYNEKFRSRVTLTADKSISTAYMELSRLRSDDTAVYYCAREDYDEIYYAMDSWGQGTTVTVSS VL: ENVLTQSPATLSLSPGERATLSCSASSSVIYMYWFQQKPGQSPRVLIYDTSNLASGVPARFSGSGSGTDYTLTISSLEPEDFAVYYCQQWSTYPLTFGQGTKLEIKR    ~0.2 nM

# next binder below
Which IC50 (read off the curve), cell-surface hCD39 ATPase activity value is on record for HuEM0004-38-21 (antibody, human IgG1, kappa, L234A L235A, V domains shown, humanized mAb638 with G55A) VH: EVQLVQSGAEVKKPGASVKVSCKASGYTFTSFWMHWVRQAPGQGLEWMGNINPRNAATKYNEKFRSRVTMTADKSISTAYMELSRLRSDDTAVYYCAREDYDEIYYAMDSWGQGTTVTVSS VL: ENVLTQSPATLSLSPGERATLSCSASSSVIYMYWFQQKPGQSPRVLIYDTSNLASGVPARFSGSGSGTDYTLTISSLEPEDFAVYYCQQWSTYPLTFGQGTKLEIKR ?
~0.2 nM
